Listing of recorded Selectivity MOR/KOR/DOR by entry.
- experimental system: human MOR (Homo sapiens, UniProt P35372)
- Sequence (P35372 whole entry): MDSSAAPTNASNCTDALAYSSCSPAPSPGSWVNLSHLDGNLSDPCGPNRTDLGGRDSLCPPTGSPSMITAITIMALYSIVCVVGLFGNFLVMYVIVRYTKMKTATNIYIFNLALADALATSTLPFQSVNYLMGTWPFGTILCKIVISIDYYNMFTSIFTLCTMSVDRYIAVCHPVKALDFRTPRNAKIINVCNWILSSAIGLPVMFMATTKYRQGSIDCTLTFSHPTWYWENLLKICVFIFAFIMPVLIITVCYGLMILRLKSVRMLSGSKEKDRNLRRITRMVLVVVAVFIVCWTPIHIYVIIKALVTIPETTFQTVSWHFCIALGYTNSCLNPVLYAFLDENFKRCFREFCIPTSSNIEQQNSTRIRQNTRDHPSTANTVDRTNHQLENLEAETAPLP
- Assay type: binding

Example results:
chemical_structure=COc1cccc(CNc2ccc3c(c2)[C@@]24CCCC[C@H]2[C@@H](C3)N(CC2CC2)CC4)c1 recorded_measurement=1/3/220
chemical_structure=COc1cccc(CN(C)c2ccc3c(c2)[C@@]24CCCC[C@H]2[C@@H](C3)N(CC2CCC2)CC4)c1 recorded_measurement=1/2/27
chemical_structure=COc1ccccc1CN(C)c1ccc2c(c1)[C@@]13CCCC[C@H]1[C@@H](C2)N(CC1CCC1)CC3 recorded_measurement=1/1/14

Below: the item to evaluate.
Param readout= Selectivity MOR/KOR/DOR; system= human MOR (Homo sapiens, UniProt P35372); entry= Oc1ccccc1CNc1ccc2c(c1)[C@@]13CCCC[C@H]1[C@@H](C2)N(CC1CCC1)CC3 ; returns value. 1/1/65

====

- experimental system: human MOR (Homo sapiens, UniProt P35372)
- Assay type: binding
reported endpoint: Selectivity MOR/KOR/DOR

Can you share its Selectivity MOR/KOR/DOR? I mean this molecule: Nc1ccc2c(c1)[C@@]13CCCC[C@H]1[C@@H](C2)N(CC1CC1)CC3 [Compound 2c] 7/1/830

Param item: Oc1cccc(CNc2ccc3c(c2)[C@@]24CCCC[C@H]2[C@@H](C3)N(CC2CCC2)CC4)c1 [Compound 4b] 1/6/720

Try this molecule too: COc1ccccc1CNc1ccc2c(c1)[C@@]13CCCC[C@H]1[C@@H](C2)N(CC1CC1)CC3 [Compound 3f] 1/1/130

What do you get for COc1ccccc1CNc1ccc2c(c1)[C@@]13CCCC[C@H]1[C@@H](C2)N(CC1CCC1)CC3 [Compound 3a] ? 1/1/28

And the next one, COc1cccc(CNc2ccc3c(c2)[C@@]24CCCC[C@H]2[C@@H](C3)N(CC2CCC2)CC4)c1 [Compound 3b] ? 1/5/220

Another molecule to check: Clc1ccc(CNc2ccc3c(c2)[C@@]24CCCC[C@H]2[C@@H](C3)N(CC2CCC2)CC4)cc1 [Compound 3d] 1/3/59

Consider next the molecule Oc1ccccc1CNc1ccc2c(c1)[C@@]13CCCC[C@H]1[C@@H](C2)N(CC1CC1)CC3 [Compound 4d] in the same way. 10/1/150

====

- experimental system: human MOR (Homo sapiens, UniProt P35372)
- Assay type: binding
- test context: Table 1; ratio of Ki values
reported endpoint: Selectivity MOR/KOR/DOR

Before answering, review these 6 worked examples.
molecule="COc1ccc(CNc2ccc3c(c2)[C@@]24CCCC[C@H]2[C@@H](C3)N(CC2CC2)CC4)cc1 [Compound 3h]" recorded_measurement=1/2/65
molecule="COc1ccc(CNc2ccc3c(c2)[C@@]24CCCC[C@H]2[C@@H](C3)N(CC2CCC2)CC4)cc1 [Compound 3c]" recorded_measurement=1/5/300
molecule="c1cc2c(cc1CNc1ccc3c(c1)[C@@]14CCCC[C@H]1[C@@H](C3)N(CC1CC1)CC4)OCO2 [Compound 3i]" recorded_measurement=1/3/120
molecule="CN(Cc1ccc(O)cc1)c1ccc2c(c1)[C@@]13CCCC[C@H]1[C@@H](C2)N(CC1CCC1)CC3 [Compound 6c]" recorded_measurement=1/1/170
molecule="Oc1cccc(CNc2ccc3c(c2)[C@@]24CCCC[C@H]2[C@@H](C3)N(CC2CC2)CC4)c1 [Compound 4e]" recorded_measurement=1/2/260
molecule="COc1ccc(CN(C)c2ccc3c(c2)[C@@]24CCCC[C@H]2[C@@H](C3)N(CC2CCC2)CC4)cc1 [Compound 5c]" recorded_measurement=1/1/34

I have this molecule here, Oc1ccc(CNc2ccc3c(c2)[C@@]24CCCC[C@H]2[C@@H](C3)N(CC2CCC2)CC4)cc1 [Compound 4c] , and I need its recorded Selectivity MOR/KOR/DOR. 1/7/340

Next record, please: Oc1ccc(CNc2ccc3c(c2)[C@@]24CCCC[C@H]2[C@@H](C3)N(CC2CC2)CC4)cc1 [Compound 4f] 1/1/44

Also, O=[N+]([O-])c1cccc(CNc2ccc3c(c2)[C@@]24CCCC[C@H]2[C@@H](C3)N(CC2CCC2)CC4)c1 [Compound 3k] please. 1/3/350
